test_settings: in propylene glycol, 298.15 K
parameter: solubility (mole fraction)

The reported value for C=C1CCN([C@H](C)[C@](O)(Cn2cncn2)c2ccc(F)cc2F)CC1 in terms of solubility (mole fraction) is 0.0343

###

test_settings: in ethanol, 303.15 K
parameter: solubility (mole fraction)
Please give only the number in your answer, with no unit.

The reported value for C=C1CCN([C@H](C)[C@](O)(Cn2cncn2)c2ccc(F)cc2F)CC1 in terms of solubility (mole fraction) is 0.203

###

test_settings: in ethanol, 298.15 K
parameter: solubility (mole fraction)
Please give only the number in your answer, with no unit.

The reported value for C=C1CCN([C@H](C)[C@](O)(Cn2cncn2)c2ccc(F)cc2F)CC1 in terms of solubility (mole fraction) is 0.172
